Test system: CAKI-1 renal
Experiment: NCI-60 one-dose screen, 48 h
Conditions: 10 µM unless noted
About 83,000 compounds went through this panel and 20% of them were active in at least one assay; those are over-represented in the sample as a whole. Active and inactive are the calls of the source. The calls were made as follows: active = growth percent below 10; inactive = the rest.
Field 'call' accepts active, inactive

Solved cases (6 shown):
>  <Compound>
CC(C)[C@H](NC(=O)Cn1cc(C(=O)O)nn1)C(=O)O

>  <Class assignment>
inactive

$$$$
>  <Compound>
CCCCCCn1c(=N)n(CC(O)COc2cccc(C)c2)c2ccccc21 (stereo not given)

>  <Class assignment>
active

$$$$
>  <Compound>
O=C(/C=C/c1ccccc1)c1ccc(Nc2nc(NCCO)nc(Nc3ccc(Cl)cc3)n2)cc1

>  <Class assignment>
inactive

$$$$
>  <Compound>
Nc1ccc(C2c3ccccc3Oc3ccccc32)cc1

>  <Class assignment>
inactive

$$$$
>  <Compound>
O=c1c(-c2nc3ccccc3[nH]2)cc2ccccc2n1Cc1cn(Cc2ccc(F)cc2)nn1

>  <Class assignment>
inactive

$$$$
>  <Compound>
C[C@@H](C(=O)NCCCC#Cc1cnc(Nc2ccc(C#N)cc2)nc1NC1CC1)N(C)C(=O)/C=C/CN(C)C

>  <Class assignment>
inactive

$$$$

Enquiry: Fill in: this test's call for `O=C(O)CCC(=O)c1ccc(C2CCCCCC2)cc1` is ___
Return: inactive

Enquiry: Fill in: this test's call for `CCOC(=O)c1cc2c(n1Cc1cc(OC)cc(OC)c1)-c1oncc1CCC2` is ___
Return: inactive
